Target: HRgpA-6H (Porphyromonas gingivalis) (UniProt P28784)
Experiment: ELISA, coated HRgpA-6H
Give measured Ratio OD(Variant)/OD(WT) for each item. Keep answers brief.
Numbers only.

Binder: KB001 mouse Fab VH I51Q/M92I (Fab, V domains shown) VH: EVQLKQSGPGLVAPSQSLSITCTVSGFSLSIYSVHWVRQPPGKGLEWLGMQWGGGSSDYNSALKSRLSISKDNSKSQVFLKMNSLQTDDTAIYYCARNGNFYAMDYWGQGTSVTVSS VL: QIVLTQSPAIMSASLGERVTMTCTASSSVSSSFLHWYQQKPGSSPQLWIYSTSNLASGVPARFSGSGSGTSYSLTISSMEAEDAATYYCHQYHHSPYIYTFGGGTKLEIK
Assay endpoint: Ratio OD(Variant)/OD(WT)
Measured result: 0.817

Turning to the following binder.
Prompt: What Ratio OD(Variant)/OD(WT) value was documented for this binder, KB001 mouse Fab VL S26T (Fab, V domains shown) VH: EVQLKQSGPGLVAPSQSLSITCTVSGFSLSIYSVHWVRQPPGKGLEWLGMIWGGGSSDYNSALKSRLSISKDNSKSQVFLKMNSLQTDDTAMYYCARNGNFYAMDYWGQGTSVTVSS VL: QIVLTQSPAIMSASLGERVTMTCTATSSVSSSFLHWYQQKPGSSPQLWIYSTSNLASGVPARFSGSGSGTSYSLTISSMEAEDAATYYCHQYHHSPYIYTFGGGTKLEIK ?
Completion: 0.972
